test system: HCT-116 cells; assay: Cell proliferation assay (CellTiter Glo), HCT-116; assay type: cell-based; settings: Homo sapiens, HCT-116, 168 h, read-out: HCT-116 IC50
Answer each item with its documented pIC50.
The read-out pIC50 is expressed as -log10 of concentration in moles per litre.

Recorded result, C[C@]12CCC(=O)C[C@@H]1CC[C@@H]1[C@@H]2CC[C@]2(C)[C@@H](OCCCCCC(=O)N3CCN(C(=O)c4cc(Cc5n[nH]c(=O)c6ccccc56)ccc4F)CC3)CC[C@@H]12 [Compound 1.2] , pIC50: 6.96

Recorded result, CC1(C)C(=O)N(c2ccc(C#N)c(C(F)(F)F)c2)C(=S)N1c1ccc(C(=O)NCCCCCC(=O)N2CCN(C(=O)c3cc(Cc4n[nH]c(=O)c5ccccc45)ccc3F)CC2)c(F)c1 [Compound 1.1] , pIC50: 6.51
